These entries and their values trace back to ChEMBL document CHEMBL1137880.

Experiment: In vivo percent mortality of housefly at 100 mM was determined using contact assay
Type: ADME, organism-based
Conditions: Musca domestica, topical

smiles.text: CSc1nn(-c2c(Cl)cc(C(F)(F)F)cc2Cl)c(N)c1-c1ccccc1C(F)(F)F
mortality at 100000 µM: 3.9%

smiles.text: C#Cc1c(SC)nn(-c2c(Cl)cc(C(F)(F)F)cc2Cl)c1N
mortality at 100000 µM: 80.1%

smiles.text: CSc1nn(-c2c(Cl)cc(C(F)(F)F)cc2Cl)c(N)c1-c1ccc2c(c1)OCO2
mortality at 100000 µM: 27.6%

smiles.text: CSc1nn(-c2c(Cl)cc(C(F)(F)F)cc2Cl)c(N)c1Cl
mortality at 100000 µM: 92.8%

smiles.text: CSc1nn(-c2c(Cl)cc(C(F)(F)F)cc2Cl)c(N)c1-c1ccccc1C
mortality at 100000 µM: 9.6%

smiles.text: CSc1nn(-c2c(Cl)cc(C(F)(F)F)cc2Cl)c(N)c1-c1nc(C)no1
mortality at 100000 µM: 95.4%

smiles.text: CSc1cc(N)n(-c2c(Cl)cc(C(F)(F)F)cc2Cl)n1
mortality at 100000 µM: 42.4%

smiles.text: CSc1nn(-c2c(Cl)cc(C(F)(F)F)cc2Cl)c(N)c1-c1cnccn1
mortality at 100000 µM: 0%
